target: Chromo domain-containing protein 1 (Saccharomyces cerevisiae (strain ATCC 204508 / S288c) (Baker's yeast)); assay: ScCHD-1 Enzyme Inhibition Assay; format: functional; parameters: scale not given: in the data most compounds retested in dose-response had high values; conditions: 30 µM
experimental.endpoint: Percent Effect (%)
Answers are plain numbers, in %.

> print(dat)
                                    compound  units.of.measure  measured.value
 1  CN(C)S(=O)(=O)N1C[C@@H](Oc2ccccn2)[C@H]2OCCC[C@H]21                 %           -11.1
 2  COc1ccc(CC(=O)N2CCCN(c3ccc(C#N)cc3)CC2)cc1                 %           -7.99
 3           CCn1cc(N)c(C(=O)NCc2cnn(C)c2)n1                 %            1.02
 4  O=C1CO[C@@H]2CN(CC3CCOCC3)C[C@H]2N1CC1CC1                 %            3.58
 5  COC(=O)CCC(=O)N1CCc2[nH]nc(-c3ccc(F)c(F)c3)c2C1                 %          -0.244
 6    Cc1nnc2n1CCN(Cc1csc(-c3ccc(F)cc3)n1)C2                 %           -6.22
 7  COc1cc(C(=O)N2CCCC(CNS(C)(=O)=O)C2)cc(OC)c1C (stereo unspecified)                 %           -4.09
 8  Cc1ccoc1C(=O)N1CCOCC2(CCN(c3ncccn3)C2)C1 (stereo unspecified)                 %           -6.03
 9  COc1ccc(F)cc1CN1CCCC(c2cc(C(N)=O)[nH]n2)C1 (stereo unspecified)                 %           -9.49
10  O=S(=O)(Nc1cnn(C2CCOCC2)c1)c1ccc2c(c1)CCO2                 %           -7.66

For each of the compounds below, note its Percent Effect.
1. c1ccc2c(N3CCCCC3Cn3cncn3)ncnc2c1 (stereo unspecified)
2. Cc1cc(CNc2cc(Cl)ccc2OCCS(C)(=O)=O)no1
3. Cc1noc2ncc(C(=O)N3CCCC3c3ccncc3)cc12 (stereo unspecified)
4. CC(c1ccc(Cl)cc1)N1CCN(CCS(C)(=O)=O)CC1 (stereo unspecified)

Result string:
1: -6.35; 2: 0.127; 3: -9.53; 4: -5.14

For each of the compounds below, note its Percent Effect.
1. Cc1ccccc1CC(=O)N(C)C1CCN(c2ccccn2)CC1
2. COc1ccccc1C(=O)N1CC(Cc2nccc3ccn(C)c23)C1
3. COc1ccc(CNCCc2cc(F)cc3c2OCOC3)cc1O
4. CNCC(=O)N1CC(c2cc(Nc3ncccn3)nc(C)n2)C1
5. CNC(=O)Cn1cc(C#N)c(=O)c2cc(Br)ccc21
6. Cc1ccc(CN2CCc3ncnc(-c4ccc(F)cc4)c3CC2)o1

Result string:
-17.5
-16.6
-2.11
-1.56
38.7
-9.77

###

species on record: Homo sapiens; assay: To identify inhibition of the IFN signalling (Jak-Stat) pathway via expression of an eGFP reporter gene under the control of an IFN-stimulated response element (ISRE) containing MxA promoter.; format: functional; set-up: scale not given: direction of the effect not stated beside the values; conditions: 30 µM
experimental.endpoint: Percent Effect
Answers without a unit are incomplete; give the number and then its unit.

Solved entries (count: 3):
> print(dat)
                                   compound  measured.value
1     CCc1nc(CN2CCN(C(=O)CCc3ccccc3)CC2)cs1           3.67%
2  Cc1nc(C)n(CC2CN(CCCOc3ccccc3C)CCO2)n1 (centres undefined)           7.57%
3  CN(C)C(=O)C1CN(Cc2ccccc2)CCN(S(C)(=O)=O)C1 (centres undefined)           11.2%

Now for a further compound.
Given item `Cn1c(C(F)(F)F)nn(CCNC(=O)CSCc2ccccc2)c1=O` , the value recorded as its Percent Effect is 14.2%

###

target: Proteasome subunit beta (Trypanosoma cruzi) (UniProt O96673); experiment: Trypanosoma cruzi proteasome chymotrypsin-like activity (TcProtChymo) assay.; type: functional; parameters: scale not given: in the data most compounds retested in dose-response had high values; conditions: 9.37 µM
Sequence (O96673 as listed by the source): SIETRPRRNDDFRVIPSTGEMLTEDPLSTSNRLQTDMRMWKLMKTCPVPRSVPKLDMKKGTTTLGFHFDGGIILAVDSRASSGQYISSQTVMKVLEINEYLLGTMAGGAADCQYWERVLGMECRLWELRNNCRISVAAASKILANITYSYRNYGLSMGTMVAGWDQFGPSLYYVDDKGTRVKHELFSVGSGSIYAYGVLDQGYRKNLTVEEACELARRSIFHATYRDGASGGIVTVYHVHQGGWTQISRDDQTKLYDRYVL
For each of the compounds below, state its Percent Effect.
Give bare numbers, in %.

Solved entries (count: 6):
> print(dat)
                                   compound  experimental.endpoint  measured.value
1  Cc1cc(CNc2ccc(C(=O)N3CCCC(C)C3)cc2C)no1 (stereo not drawn)         Percent Effect            3.72
2  CN1CC(=O)N(c2ccsc2)CC12CCN(S(C)(=O)=O)C2 (stereo not drawn)         Percent Effect              20
3  Cc1cc(C)n(CC2CN(Cc3cscn3)CCO2)n1 (stereo not drawn)         Percent Effect            27.2
4   CC(C)Cc1noc(CN2CCC(NC(=O)c3cccs3)CC2)n1         Percent Effect              19
5               O=C(c1cccc(NCCO)c1)N1CCOCC1         Percent Effect            19.3
6  CCc1nc(CN2CCCN(C(=O)c3cn[nH]c3CC)CC2)cs1         Percent Effect            10.2

For each of the compounds below, note its Percent Effect.
1. Cc1ccc(CNC(CN2CCN(C)CC2)c2ccccc2)cc1 (stereo not drawn)
2. CN1C(=O)C[C@@H]2[C@@H]1CCN2C(=O)c1ccc[nH]1
3. COc1ccc(NC(=O)Cn2nc(C)c(C)cc2=O)cc1OC
4. CN(C)Cc1cnc2n1CCN(Cc1ccsc1)CC2
5. Cn1ccnc1CN1CCC2(CC1)CC(NC(=O)c1ccccn1)CO2 (stereo not drawn)
6. CCC(=O)NCCc1cc(N2CCN(C(C)=O)CC2)nc(C2CC2)n1
7. CCCN(C(=O)COC)c1nc2c(s1)CCc1c-2cnn1C
8. CCOc1ncccc1NC(=O)NCC(O)c1ccccc1OC (stereo not drawn)

Result string:
[7.64, 10.7, 8.97, 13.4, 9.4, 10.3, 2.79, 9.75]

For each of the compounds below, note its Percent Effect.
1. CN(CCNC(=O)N1CCN(Cc2ccon2)CC1)C1CCCC1
2. COc1cc(C)c(S(=O)(=O)NCc2cccnc2N(C)C)c(C)c1
3. CCOCC1CC2(CCN(C(=O)c3ccccc3F)CC2)CO1 (stereo not drawn)
4. CC(C)CCN(C)C(=O)c1nc(S(C)(=O)=O)n2ccccc12

Result string:
-2.27
19.8
-0.794
2.13

For each of the compounds below, note its Percent Effect.
1. N#Cc1ccccc1OCCN1CCC(N2CCNC2=O)CC1
2. O=C(c1cc(C2CC2)on1)N1CC[C@]2(C[C@H](Oc3cccnc3)CO2)C1
3. Cc1nc(N)sc1C(=O)N1CCCC(c2nccn2CCCN(C)C)C1 (stereo not drawn)

Result string:
[6.28, 6.27, 13.2]

For each of the compounds below, note its Percent Effect.
1. CCc1nccn1C1CCCN(C(=O)Cc2n[nH]c3ccccc23)C1 (stereo not drawn)
2. O=C(c1ccc(F)cc1Cl)N1CCC(Nc2cccnn2)CC1

Result string:
1. -0.858
2. 7.37

###

target: Protein translocase subunit SecA (Escherichia coli (strain K12)) (UniProt P10408); assay: Assay to Identify E. coli SecA ATPase Inhibitors; type: functional; design: scale not given: direction of the effect not stated beside the values; settings: 30 µM
Sequence (P10408 whole entry): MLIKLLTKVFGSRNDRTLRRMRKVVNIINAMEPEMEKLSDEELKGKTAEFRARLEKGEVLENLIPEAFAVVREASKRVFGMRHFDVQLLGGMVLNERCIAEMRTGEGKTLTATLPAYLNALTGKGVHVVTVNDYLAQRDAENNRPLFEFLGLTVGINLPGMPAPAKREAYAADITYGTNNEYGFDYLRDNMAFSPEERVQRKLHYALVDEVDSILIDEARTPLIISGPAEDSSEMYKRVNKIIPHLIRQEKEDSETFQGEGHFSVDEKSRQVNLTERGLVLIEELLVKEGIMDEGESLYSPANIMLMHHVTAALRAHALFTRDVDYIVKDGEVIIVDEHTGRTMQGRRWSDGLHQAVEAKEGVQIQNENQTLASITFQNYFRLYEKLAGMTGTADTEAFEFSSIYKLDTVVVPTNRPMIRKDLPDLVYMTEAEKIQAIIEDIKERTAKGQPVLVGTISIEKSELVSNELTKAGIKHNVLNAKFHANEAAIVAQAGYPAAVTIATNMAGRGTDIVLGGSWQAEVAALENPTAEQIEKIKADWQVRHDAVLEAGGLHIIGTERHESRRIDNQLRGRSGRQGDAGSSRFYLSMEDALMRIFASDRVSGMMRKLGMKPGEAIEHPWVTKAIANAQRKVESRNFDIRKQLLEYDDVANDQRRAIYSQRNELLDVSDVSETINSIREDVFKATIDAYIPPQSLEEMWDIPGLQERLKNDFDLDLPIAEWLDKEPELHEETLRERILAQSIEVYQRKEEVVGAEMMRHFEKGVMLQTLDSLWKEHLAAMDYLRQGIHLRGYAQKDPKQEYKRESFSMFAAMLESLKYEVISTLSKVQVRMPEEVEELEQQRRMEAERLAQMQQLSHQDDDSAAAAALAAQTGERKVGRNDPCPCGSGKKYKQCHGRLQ
Entries with a potency or affinity are not part of this list.
For each of the compounds below, state its Percent Effect.
One number for each entry, in %.

> print(dat)
                             compound                         target.under.test  experimental.endpoint  units.of.measure  measured.value
1  Cc1ccnc(OCC(=O)N2CCC(C(N)=O)CC2)n1  Protein translocase subunit SecA (Escherichia coli (strain K12)) (UniProt P10408)         Percent Effect                 %           -3.87

For each of the compounds below, note its Percent Effect.
1. CN(C)C(=O)CN1C(=O)CCC12CCN(Cc1cccn1C)CC2
2. O=C(Nc1cccc(CNCc2cccs2)c1)C1CCCC1
3. COCCc1noc(CN2CCCC2c2c(C)nn(C)c2C)n1 (centres undefined)

Result string:
1. -0.209
2. -4.41
3. -3.14

###

molecular target: Arginase-2, mitochondrial (Homo sapiens); test: in vitro enzyme assay to detect the production of urea directly proportional to the activity of Arginase II; type: functional; set-up: scale not given: in the data most compounds retested in dose-response had high values; conditions: 33.3 µM
For each of the compounds below, state its Percent Effect.
Numbers only, in %.

Solved entries (count: 4):
> print(dat)
                                   compound                         target.under.test  measured.value
1  CCn1ncc2c1CCCC2NCc1cccc2c1OCCO2 (stereo not drawn)  Arginase-2, mitochondrial (Homo sapiens)            4.09
2  CN(C)C(CNC(=O)NCCc1cccc(O)c1)c1ccco1 (stereo not drawn)  Arginase-2, mitochondrial (Homo sapiens)             6.7
3  Cc1cccc(C(=O)N2CCC(Cc3cnc4[nH]ccc4c3)CC2)n1  Arginase-2, mitochondrial (Homo sapiens)            4.42
4  O=C(c1ccc2c(c1)OCO2)N1CCCSCC1CN1CCCC1 (stereo not drawn)  Arginase-2, mitochondrial (Homo sapiens)            5.81

For each of the compounds below, note its Percent Effect.
1. CC(C)c1nn(C)c(N2CCOCC2)c1CNCC(=O)N(C)C
2. O=C(NCCCc1ccncc1)C1CCCN(Cc2ccco2)C1 (stereo not drawn)
3. Cc1nnc(NC(=O)NCc2cccnc2N(C)C)s1
4. Cc1ccc(-c2nnc(SCC(=O)O)n2-c2ccc(C)cc2)cc1
5. COCCOc1cccc(C(=O)N2CCCC(n3cccn3)C2)c1 (stereo not drawn)

Result string:
1. 3.69
2. 1.04
3. 4.27
4. 1.17
5. -1.84

For each of the compounds below, note its Percent Effect.
1. CN1N=C(C(=O)N(Cc2ccco2)C2CC2)CCC1=O
2. CN1CCN(C(=O)c2nc3c(o2)CN(C(=O)c2cccnc2)C3)CC1
3. Cc1cc(C(=O)NCCN2CCCC(C)C2)nn1C (stereo not drawn)
4. CO[C@H]1CCN(C(=O)Cc2ccccn2)[C@H]1Cc1ccncc1
5. O=C(NCc1cc[nH]n1)NCC(c1ccc(F)cc1)N1CCOCC1 (stereo not drawn)
6. CCc1nc(C2CCCN2C(=O)CCc2cccs2)no1 (stereo not drawn)
7. COc1cccc(CN(C)Cc2cccc(C#N)c2)c1OC

Result string:
1. -1.18
2. -5.52
3. 0
4. -2.56
5. 2.87
6. 1.29
7. 23.3

For each of the compounds below, note its Percent Effect.
1. CN(C(=O)NCc1ccncc1)C1CCN(c2ccccc2)C1=O (stereo not drawn)
2. CC(=O)N1CCC(c2cncc(Oc3ccccc3)n2)CC1
3. Cc1cc(C)n(CC2CN(Cc3cccc(C(N)=O)c3)CCO2)n1 (stereo not drawn)
4. c1ccc(-c2cnc(CNCC3CCCN3c3cccnn3)o2)cc1 (stereo not drawn)
5. Cc1c(C)n(Cc2ccncc2)c2nc3c(c(N)c12)CCCCC3
6. CCc1noc(C(C)N(C)CC(=O)Nc2cccc(C)n2)n1 (stereo not drawn)
7. CS(=O)(=O)NCc1nnc2n1CCN(Cc1cccs1)C2
8. CC(=O)N1CCCC1c1cc(N2CCN(C3CCCC3)CC2)cc(C)n1 (stereo not drawn)

Result string:
-3.06
-1.17
8.75
3.16
-1.94
0.909
-3.5
1.33

For each of the compounds below, note its Percent Effect.
1. CC1CCN(CCNC(=O)c2cncnc2C(C)C)CC1
2. Cc1ccc(S(=O)(=O)N2CCOc3ccccc32)cc1C(=O)O

Result string:
1: 2.21; 2: 1.23

For each of the compounds below, note its Percent Effect.
1. Cc1ccc(CCN2CCC(N(C)Cc3noc(C4CC4)n3)C2)cc1 (stereo not drawn)
2. CSC(C)C(=O)N1CCCN(Cc2cnn(C(C)C)c2)CC1 (stereo not drawn)

Result string:
[3.69, 2]
